Where these numbers come from: PubChem BioAssay AID1159580

Assay: chemical genetic growth profiling, strain panel (AID 1159580);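 also: tested at 20 µM; growth read once vehicle control cultures reached saturation at 30 °C; 1 = growth at the plate median or of vehicle wells; lower values mean less growth of the strain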
Details: S. cerevisiae deletion strains, growth OD, locus YMR058W, strain fet3, active compounds read low
Screen size: about 5,500 compounds; about 2,000 (36%) were called active. Roughly 18% stayed inconclusive and do not appear here. The list shows a part of the results.
Assay Endpoint: normalized growth
Reply: number alone, nothing else.

>  <Compound>
CC1(C)C2CC[C@]3(C)C(C(=O)C=C4[C@@H]5C[C@@](C)(C(=O)O)CC[C@]5(C)CC[C@]43C)[C@@]2(C)CC[C@@H]1O (stereo not given in full)

>  <Assay Endpoint>
normalized growth

>  <Assay Value>
0.983

$$$$
>  <Compound>
COC(=O)C1=COC(OC2OC(CO)C(O)C(O)C2O)C2C(C)CC(=O)C12O (stereo not given)

>  <Assay Endpoint>
normalized growth

>  <Assay Value>
0.987

$$$$

[Q] Name the recorded normalized growth of the compound listed here: CC[C@H]1OC(=O)C[C@@H](O)[C@H](C)[C@@H](O[C@@H]2O[C@H](C)[C@@H](O[C@H]3C[C@@](C)(O)[C@@H](O)[C@H](C)O3)[C@H](N(C)C)[C@H]2O)[C@@H](CC=O)C[C@@H](C)C(=O)/C=C/C(C)=C/[C@@H]1CO[C@@H]1O[C@H](C)[C@@H](O)[C@@H](OC)[C@H]1OC
[A] 1

[Q] Give the value of normalized growth reported for the following: COc1ccc2cc1Oc1ccc(cc1)C[C@H]1c3cc(c(OC)cc3CCN1C)Oc1c(OC)c(OC)cc3c1[C@H](C2)N(C)CC3
[A] 1

[Q] Note normalized growth for the compound shown: C=C1CC[C@H](O)C/C1=C/C=C1\CCC[C@]2(C)C([C@H](C)/C=C/[C@H](C)C(C)C)CC[C@@H]12 (stereo not given in full)
[A] 1

[Q] Quickly give me recorded normalized growth for CN1CCCC(n2nc(Cc3ccc(Cl)cc3)c3ccccc3c2=O)CC1 (stereo not given)
[A] 0.961
